- Assay info: ATG_TA_CIS: Attagene CIS-FACTORIAL HepG2 Assay for human TA Basal Promoter (AID 2282964)
- Condition summary: HepG2 Attagene CIS-factorial TA basal promoter reporter; actives raise or lower the signal
Active and inactive are the calls of the source. How the source made its calls: active means hit-call score of the fitted dose curve at least 0.9, where 1 is the maximum; inactive means score below 0.9.
Answer with one of the outcomes class 1 (active), class 0 (inactive)

{"Compound": "Cc1cc2c(cc1C(F)(F)F)N(C(=O)Nc1ccc(Oc3cccnc3C)nc1)CC2", "Class label": "class 0"}
{"Compound": "Cc1oc2c(NC(=O)c3c(Cl)cccc3Cl)cccc2c1C(C)(C)O", "Class label": "class 1"}
{"Compound": "CCCCCCCCCCCCO", "Class label": "class 0"}
{"Compound": "CCCCCCCCN(C)CCCCCCCC", "Class label": "class 0"}

Q) Dear colleague, could you share the recorded outcome for CN1C(=O)N(c2ccccc2Br)Cc2cnc(Nc3ccc4c(c3)OCC(CO)O4)nc21 (stereo not given) when you have a moment?
A) class 1

Q) Subsequent entry: `Cc1cn([C@H]2C[C@H](N=[N+]=[N-])[C@@H](CO)O2)c(=O)[nH]c1=O`
A) class 0

Q) Subsequent entry: CC(O)CC(C)(C)O (stereo not given)
A) class 0

Q) Subsequent entry: `CCCCCCCCCC(=O)O`
A) class 0

* * *

- Assay info: BSK_3C_VCAM1: BioMAP Diversity Plus: 3C Assay for Vascular cell adhesion molecule 1 (VCAM1) Biomarker Activity (AID 2282999)
- Condition summary: BioMAP 3C HUVEC, VCAM1 ELISA, cytokine-stimulated; actives raise or lower the signal
Active and inactive are the calls of the source. Rule for the calls: active = hit-call score of the fitted dose curve at least 0.9, where 1 is the maximum; inactive = score below 0.9.
Answer with one of the outcomes active, inactive

See these solved cases before continuing.
{"Compound": "CC1=CC(=O)/C(=C(/C)O)C(=O)O1", "Class label": "inactive"}
{"Compound": "CCCCCCCCCCCC[N+](C)(C)C", "Class label": "active"}

Q) Dear colleague, could you share the recorded outcome for CC(O)CC(C)(C)O (configuration not stated) when you have a moment?
A) inactive

Q) Subsequent entry: `O=C=NCCCCCCN=C=O`
A) inactive

Q) Subsequent entry: `O=c1[nH]sc2ccccc12`
A) active

Q) Subsequent entry: `C[C@]12CC[C@@H]3c4ccc(O)cc4CC[C@H]3[C@@H]1CCC2=O`
A) inactive

Q) Subsequent entry: `CN(C[C@@H](CC[N+]12CCC(C3CCCCC3)(CC1)CC2)c1ccc(Cl)c(Cl)c1)C(=O)c1cc(C(F)(F)F)cc(C(F)(F)F)c1`
A) active

* * *

- Read-out: Macrophage colony-stimulating factor (MCSF), CSF1 (gene 1435)
- Assay info: BSK_hDFCGF_MCSF: BioMAP Diversity Plus: hDFCGF Assay for Macrophage colony-stimulating factor (MCSF) Biomarker Activity (AID 2283060)
- Condition summary: primary human foreskin fibroblasts; actives raise or lower the signal
- Procedure: BSK_hDFCGF is a cell-based, multiplexed-readout assay that uses foreskin fibroblast, a human skin primary cell, with measurements taken at 24 hours after chemical dosing in a 96-well plate.BSK_hDFCGF_MCSF is an assay component measured in the BSK_hDFCGF assay. It measures M-CSF antibody related to regulation of gene expression using ELISA technology.Data from the assay component BSK_hDFCGF_MCSF was analyzed into 1 assay endpoint. […]
The source made the active and inactive calls. How the source made its calls: active means hit-call score of the fitted dose curve at least 0.9, where 1 is the maximum; inactive means score below 0.9.
Answer with one of the outcomes y for active, n for inactive

See these solved cases before continuing.
{"Molecule": "Cc1cc(F)ccc1-c1cc(N2CC[C@@H](O)[C@H]2CO)ncc1N(C)C(=O)C(C)(C)c1cc(C(F)(F)F)cc(C(F)(F)F)c1", "Class label": "y"}
{"Molecule": "CCCCCCCCCCCO", "Class label": "y"}
{"Molecule": "CCN(Cc1cccc(S(=O)(=O)O)c1)c1ccc(C(=C2C=CC(=[N+](CC)Cc3cccc(S(=O)(=O)O)c3)C=C2)c2ccccc2S(=O)(=O)[O-])cc1", "Class label": "n"}
{"Molecule": "C[C@]12CC[C@@H]3c4ccc(O)cc4CC[C@H]3[C@@H]1CC[C@H]2O", "Class label": "n"}
{"Molecule": "O=c1[nH]sc2ccccc12", "Class label": "y"}
{"Molecule": "c1ccc2n[nH]nc2c1", "Class label": "n"}
{"Molecule": "CO[C@H]1/C=C/O[C@@]2(C)Oc3c(C)c(O)c4c(O)c(c(/C=N/N5CCN(C)CC5)c(O)c4c3C2=O)NC(=O)/C(C)=C\\C=C\\[C@H](C)[C@H](O)[C@@H](C)[C@@H](O)[C@@H](C)[C@H](OC(C)=O)[C@@H]1C", "Class label": "n"}
{"Molecule": "CCCCCCCCOC(=O)c1cc(O)c(O)c(O)c1", "Class label": "y"}
{"Molecule": "Clc1cc(Cl)c2c(c1)N=C1CCCCCN1C2", "Class label": "n"}
{"Molecule": "CN(C)c1ccc(C(=C2C=CC(=[N+](C)C)C=C2)c2ccc(N(C)C)cc2)cc1", "Class label": "y"}

Q) Dear colleague, could you share the recorded outcome for CC(O)CC(C)(C)O (configuration not stated) when you have a moment?
A) n

Q) Subsequent entry: `CCCCOC(=O)c1ccc(O)cc1`
A) n

Q) Subsequent entry: `O=c1ccc2ccccc2o1`
A) n

Q) Subsequent entry: `Cc1cccc2ccccc12`
A) n

Q) Subsequent entry: `CCCCOC(=O)CC(CC(=O)OCCCC)(OC(C)=O)C(=O)OCCCC`
A) n

Q) Subsequent entry: `O=C(O)c1ccccc1C(=O)OCc1ccccc1`
A) n

Q) Subsequent entry: `CCCCCCCCCCCC[N+](C)(C)C`
A) y

Q) Subsequent entry: `Clc1ccccc1C(c1ccccc1)(c1ccccc1)n1ccnc1`
A) y

Q) Subsequent entry: `CC[C@@H]1C[C@H](N(Cc2cc(C(F)(F)F)cc(C(F)(F)F)c2)C(C)=O)c2cc(C(F)(F)F)ccc2N1C(=O)OC(C)C`
A) n

Q) Subsequent entry: `CC(C)(O)c1ccc(CNC(=O)c2cccnc2Oc2ccc3nonc3c2)cc1`
A) n

Q) Subsequent entry: `Cc1ccc2oc(CN(Cc3ccccc3)C(=O)Nc3c(F)cc(F)cc3F)c(-c3ccc(Cl)cc3)c2c1`
A) n

Q) Subsequent entry: `O=C(O)c1ccccc1-n1cc(C(=O)O)c(=O)c2cc(Nc3c(F)cc(F)cc3Cl)c(Cl)cc21`
A) n

Q) Subsequent entry: `Cc1c2ccccc2c(C)c2c1ccc1ccccc12`
A) y

Q) Subsequent entry: `CC(C)(C)c1csc(-c2cc3cc(OCc4ccccc4CC(=O)O)ccc3o2)n1`
A) y

Q) Subsequent entry: `NC(=O)c1nc(-c2cccc(-c3cc(F)ccc3OCC(F)(F)C(F)(F)F)c2)n[nH]1`
A) y

Q) Subsequent entry: `Cc1oc2c(NC(=O)c3c(Cl)cccc3Cl)cccc2c1C(C)(C)O`
A) n

Q) Subsequent entry: `CCOC(=O)O[C@H](C)OC(=O)c1ccc2c(c1)cc(C(=O)NC1CCN(C(C)C)CC1)n2Cc1cc(-c2ccc(Cl)s2)on1`
A) y

Q) Subsequent entry: `CCN(Cc1cccnc1)C(=O)c1cccc(Cl)c1[C@]1(C)C(=O)N(Cc2ccc(OC)cc2OC)c2ccc(Cl)cc21`
A) y

Q) Subsequent entry: `Cc1cc2c(cc1C(F)(F)F)N(C(=O)Nc1ccc(Oc3cccnc3C)nc1)CC2`
A) n

Q) Subsequent entry: `O=C1c2ccccc2C(=O)N1CCc1noc(-c2ccc(CN3CCCCCC3)s2)n1`
A) n

Q) Subsequent entry: `CC(C)(C)c1cc(/C=C2\SC(N)=NC2=O)cc(C(C)(C)C)c1O`
A) y
